Molecular target: Cbp1 (c-di-GMP binding protein 1; PilZ domain containing chemoreceptor) (Azorhizobium caulinodans, UniProt A8II15)
Construct: Cbp1 ORF with C-terminal 6×His tag, expressed in E. coli Top10
Sequence (A8II15 1-581): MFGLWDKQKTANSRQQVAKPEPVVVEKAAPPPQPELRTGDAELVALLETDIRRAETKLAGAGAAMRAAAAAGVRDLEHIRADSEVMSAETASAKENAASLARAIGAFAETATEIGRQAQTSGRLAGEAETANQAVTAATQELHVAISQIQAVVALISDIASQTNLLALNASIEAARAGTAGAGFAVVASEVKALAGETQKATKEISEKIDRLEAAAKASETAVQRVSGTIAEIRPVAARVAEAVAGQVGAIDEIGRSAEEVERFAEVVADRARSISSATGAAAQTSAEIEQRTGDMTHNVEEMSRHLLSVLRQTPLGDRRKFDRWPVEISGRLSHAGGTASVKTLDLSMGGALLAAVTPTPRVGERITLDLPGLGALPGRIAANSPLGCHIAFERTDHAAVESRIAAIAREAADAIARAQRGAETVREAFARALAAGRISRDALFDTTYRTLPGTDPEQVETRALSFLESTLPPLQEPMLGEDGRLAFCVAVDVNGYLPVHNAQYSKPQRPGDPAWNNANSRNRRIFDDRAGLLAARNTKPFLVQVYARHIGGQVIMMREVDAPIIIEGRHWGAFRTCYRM
Experiment: ITC ([…] protein titrated with […] c-di-GMP); also protein thermal shift assay
valueKind: Kd (µM)

>  <molecule>
Nc1nc2c(ncn2[C@@H]2O[C@@H]3CO[P@](=O)(O)O[C@H]4[C@@H](O)[C@H](n5cnc6c(=O)[nH]c(N)nc65)O[C@@H]4CO[P@](=O)(O)O[C@H]3[C@H]2O)c(=O)[nH]1 [c-di-GMP]

>  <observedResult>
14.9

$$$$
